# TESTED ON: BRD4 BD2 (Homo sapiens)
# PROTOCOL SUMMARY: AlphaScreen binding assay, BRD4 Bromodomain 2
# Procedure: The binding of Example compounds to BRD4 Bromodomain 1 and BRD4 Bromodomain 2 was assessed using 384-well AlphaScreen assay technology. His-epitope tagged BRD4 BD144-168 and BRD4 BD2333-460 were cloned, expressed, and purified to homogeneity. BRD4 BD1 and BRD4 BD2 binding and inhibition was assessed by monitoring the engagement of biotinylated Histone H4 (1-21) K5/8/12/16 tetra-acetylated peptide with the targets using the AlphaScreen technology (PerkinElmer). […]
pIC50: −log10 of the molar value.
PROPERTY NAME: pIC50

[[record]]
smiles_structure = "CC(=O)N1c2ccc(-c3cnn(CCO)c3)cc2N(C(=O)N(C)C(C)C)C[C@@H]1C"
property_name = "pIC50"
result = "6.30 to 7.30"

[[record]]
smiles_structure = "CC(=O)N1c2ccc(-c3ccc4scnc4c3)cc2N(C(=O)c2ccco2)C[C@@H]1C"
property_name = "pIC50"
result = "> 7.30"

[[record]]
smiles_structure = "CC(=O)N1c2ccc(-c3ccc(N4CCCC4=O)cc3)cc2N(C(=O)OC2CCOCC2)C[C@@H]1C"
property_name = "pIC50"
result = "6.30 to 7.30"

[[record]]
smiles_structure = "CC(=O)N1c2ccc(-c3ccc(S(=O)(=O)N(C)C)c(C)c3)cc2N(C(=O)C2CC2)C[C@@H]1C"
property_name = "pIC50"
result = "6.30 to 7.30"

[[record]]
smiles_structure = "C[C@H]1CN(C(=O)C2CC2)c2cc(-c3ccc(N4CCCS4(=O)=O)cc3)ccc2N1C(=O)C1CC1"
property_name = "pIC50"
result = "6.30 to 7.30"

[[record]]
smiles_structure = "COC(=O)N1c2ccc(-c3cnn(CCN4CCCC4=O)c3)cc2N(C(=O)OC(C)C)C[C@@H]1C"
property_name = "pIC50"
result = "6.30 to 7.30"

[[record]]
smiles_structure = "COc1ccc(-c2ccc3c(c2)N(C(=O)C2CC2)C[C@H](C)N3C(C)=O)cc1NS(C)(=O)=O"
property_name = "pIC50"
result = "6.30 to 7.30"

[[record]]
smiles_structure = "CC(=O)N1c2ccc(-c3ccc(N4CCCS4(=O)=O)cc3)cc2N(C(=O)Oc2ccc(F)cc2)C[C@@H]1C"
property_name = "pIC50"
result = "6.30 to 7.30"

[[record]]
smiles_structure = "CC(=O)N1c2ccc(-c3ccc(C(=O)N4CCCN(C)CC4)cc3)cc2N(C(=O)OC(C)C)C[C@@H]1C"
property_name = "pIC50"
result = "6.30 to 7.30"

[[record]]
smiles_structure = "CC(=O)N1c2ccc(-c3cccc4c3cnn4C)cc2N(C(=O)c2ccco2)C[C@@H]1C"
property_name = "pIC50"
result = "6.30 to 7.30"

[[record]]
smiles_structure = "CCOC(=O)N1C[C@H](C)N(C(C)=O)c2ccc(-c3cccc(NS(=O)(=O)CC)c3)cc21"
property_name = "pIC50"
result = "6.30 to 7.30"

[[record]]
smiles_structure = "CC(=O)N1c2ccccc2N(C(=O)c2cnc(-c3cccnc3)s2)C[C@@H]1C"
property_name = "pIC50"
result = "< 6.30"

[[record]]
smiles_structure = "CC(=O)N1c2ccc(-c3cnn(C4CS(=O)(=O)C4)c3)cc2N(C(=O)OC2CCCCC2)C[C@@H]1C"
property_name = "pIC50"
result = "> 7.30"

[[record]]
smiles_structure = "CC(=O)N1c2ccc(-c3cnn(C4CC4)c3)cc2N(C(=O)Oc2cccc(C#N)c2)C[C@@H]1C"
property_name = "pIC50"
result = "6.30 to 7.30"

[[record]]
smiles_structure = "CC(=O)N1c2ccc(N(C)Cc3ccccc3)cc2N(C(=O)c2ccco2)C[C@@H]1C"
property_name = "pIC50"
result = "6.30 to 7.30"


----------
# TESTED ON: BRD4 BD1 (Homo sapiens)
# PROTOCOL SUMMARY: AlphaScreen binding assay, BRD4 Bromodomain 1
pIC50: −log10 of the molar value.
Some compounds, each annotated with its measured pIC50.
PROPERTY NAME: pIC50

[[record]]
compound = "CC(=O)N1c2ccc(-c3ccc(S(C)(=O)=O)cc3)cc2N(C(=O)c2ncc[nH]2)CC1C (stereo not shown)"
property_name = "pIC50"
result = "5.00 to 6.00"

[[record]]
compound = "CC(=O)N1c2ccc(-c3ccc(-c4ccccc4)cc3)cc2N(C(=O)COc2ccccc2)C[C@@H]1C"
property_name = "pIC50"
result = "< 5.00"

[[record]]
compound = "COCCOC(=O)N1C[C@H](C)N(C(C)=O)c2ccc(-c3ccc(S(C)(=O)=O)cc3)cc21"
property_name = "pIC50"
result = "5.00 to 6.00"

[[record]]
compound = "COc1ccc(S(=O)(=O)N2C[C@H](C)N(C(C)=O)c3ccccc32)cc1"
property_name = "pIC50"
result = "< 5.00"

[[record]]
compound = "CC(=O)N1c2ccc(-c3cnn(C4CC4)c3)cc2N(C(=O)Oc2cccnc2C)C[C@@H]1C"
property_name = "pIC50"
result = "5.00 to 6.00"

[[record]]
compound = "CC(=O)Nc1cc2c(cc1-c1ccc(S(C)(=O)=O)cc1)N(C(=O)OC(C)C)C[C@H](C)N2C(C)=O"
property_name = "pIC50"
result = "5.00 to 6.00"

[[record]]
compound = "CC(=O)N1c2ccc(-c3ccc(S(=O)(=O)CCO)cc3)cc2N(C(=O)C2CC2)C[C@@H]1C"
property_name = "pIC50"
result = "6.00 to 7.00"


----------
Some molecules, each annotated with its measured IC50.
# TESTED ON: BRD4 BD2 (Homo sapiens)
# PROTOCOL SUMMARY: AlphaScreen binding assay, BRD4 Bromodomain 2
# Procedure: The binding of Example compounds to BRD4 Bromodomain 1 and BRD4 Bromodomain 2 was assessed using 384-well AlphaScreen assay technology. His-epitope tagged BRD4 BD144-168 and BRD4 BD2333-460 were cloned, expressed, and purified to homogeneity. BRD4 BD1 and BRD4 BD2 binding and inhibition was assessed by monitoring the engagement of biotinylated Histone H4 (1-21) K5/8/12/16 tetra-acetylated peptide with the targets using the AlphaScreen technology (PerkinElmer). […]
PROPERTY NAME: IC50

[[record]]
smiles_structure = "COC(=O)N1c2ccc(-c3cnn(C(C)(C)CO)c3)cc2N(C(=O)Oc2ccc(F)cc2)C[C@@H]1C"
property_name = "IC50"
result = "< 50 nM"

[[record]]
smiles_structure = "CC(=O)N1c2ccc(-c3cnn(C4CCNCC4)c3)cc2N(C(=O)OC(C)C)C[C@@H]1C"
property_name = "IC50"
result = "50 to 500 nM"

[[record]]
smiles_structure = "CC(=O)N1c2ccc(-c3cnn(C4CC4)c3)cc2N(C(=O)Oc2cccnc2)C[C@@H]1C"
property_name = "IC50"
result = "< 50 nM"

[[record]]
smiles_structure = "CC(=O)N1c2ccc(-c3cccc(-c4nnc(C)o4)c3)cc2N(C(=O)c2ccco2)C[C@@H]1C"
property_name = "IC50"
result = "50 to 500 nM"

[[record]]
smiles_structure = "CC(=O)N1c2ccc(-c3ccc(F)c(C(=O)NC(C)C)c3)cc2N(C(=O)c2ccco2)C[C@@H]1C"
property_name = "IC50"
result = "< 50 nM"

[[record]]
smiles_structure = "CC(=O)N1c2ccccc2N(Cc2ccc(Oc3ccccc3)cc2)C[C@@H]1C"
property_name = "IC50"
result = "> 500 nM"

[[record]]
smiles_structure = "CCNC(=O)Cn1cc(-c2ccc3c(c2)N(C(=O)OC(C)C)C[C@H](C)N3C(C)=O)cn1"
property_name = "IC50"
result = "50 to 500 nM"

